This collection of values is drawn from PubChem BioAssay (NCI).

System: M14 melanoma
Assay: NCI tumour cell line growth inhibition, 48 h
Reported endpoint: TGI

Request: Give TGI for the following compound: O=C(c1ccccc1Cl)n1oc2ccccc2c1=O
Result: > 100 µM

Request: Give TGI for the following compound: CC(C)(C)CC(C)(C)c1ccc(O)c(Cc2ccc(Cl)cc2Cl)c1
Result: 3.08 µM

Request: Give TGI for the following compound: CNC(=O)C1(C#N)C(c2ccccc2)C(C#N)(C(=O)NC)C1c1ccccc1 (stereo unspecified)
Result: > 100 µM

Request: Give TGI for the following compound: CCOC(=O)Cn1c2ccc(Br)cc2c2nc3ccccc3nc21
Result: > 100 µM

Request: Give TGI for the following compound: COc1ccc(C(=O)c2c3cc(OC)c(OC)c(OC)c3cc[n+]2C)cc1
Result: > 100 µM

Request: Give TGI for the following compound: CC(NCc1c(O)ccc2ccc(=O)oc12)C(=O)O (stereo unspecified)
Result: > 100 µM

Request: Give TGI for the following compound: CCN(CC)CC(C)C(=O)/C=C/c1ccc(C)cc1 (stereo unspecified)
Result: 4.85 µM

Request: Give TGI for the following compound: C=C(C)[C@@H]1CCC2=C[C@H](C/C(C)=C\C3=CC(C)=C(O3)[C@H]1O)OC2=O
Result: > 100 µM

Request: Give TGI for the following compound: O=C1/C(=C/c2ccc(O)cc2)CCc2ccc([N+](=O)[O-])cc21
Result: > 100 µM

Request: Give TGI for the following compound: COC1(C)C(=O)N2C1N(C(=O)OC(C)(C)C)CC2(C)C (stereo unspecified)
Result: > 100 µM

Request: Give TGI for the following compound: Cc1c(/C=N/NC(=S)Nc2ccc(Cl)cc2)c(=O)n(-c2ccccc2)n1C
Result: > 100 µM
